Reported mass density values for a set of molecules
settings: 333.15 K; 101.33 kPa; Liquid; Vibrating tube method
Measured Metric: mass density (kg/m3)

Molecule: CCCC[n+]1ccn(C)c1.O=S(=O)([N-]S(=O)(=O)C(F)(F)F)C(F)(F)F
Observed Result: 1403.4

Molecule: CC(=O)[O-].CCCCn1cc[n+](C)c1 [1-butyl-3-methylimidazolium acetate]
Observed Result: 1029.5

Molecule: CCOP(=O)([O-])OCC.CCn1cc[n+](C)c1 [1-ethyl-3-methylimidazolium diethyl phosphate]
Observed Result: 1121.2

Molecule: CCn1cc[n+](C)c1.CO[PH](=O)[O-] [1-ethyl-3-methylimidazolium methyl phosphonate]
Observed Result: 1172.5

###

conditions: 293.15 K; 101.33 kPa; Liquid; Concentric cylinders viscometry
Numbers after ± are expanded uncertainties.
# viscosity values compiled below
Measured Metric: viscosity

Molecule: CCn1cc[n+](C)c1.CO[PH](=O)[O-] [1-ethyl-3-methylimidazolium methyl phosphonate]
Observed Result: 156.4 ± 7.6 mPa·s
//
Molecule: CCCC[n+]1ccn(C)c1.O=S(=O)([N-]S(=O)(=O)C(F)(F)F)C(F)(F)F
Observed Result: 63.41 ± 3 mPa·s
//
Molecule: CCOP(=O)([O-])OCC.CCn1cc[n+](C)c1 [1-ethyl-3-methylimidazolium diethyl phosphate]
Observed Result: 664.7 ± 38 mPa·s
//
Molecule: CC(=O)[O-].CCCCn1cc[n+](C)c1 [1-butyl-3-methylimidazolium acetate]
Observed Result: 592.3 ± 33 mPa·s

###

settings: 363.15 K; 101.33 kPa; Liquid; Concentric cylinders viscometry
Items are presented alongside their recorded viscosity.

Molecule: CCn1cc[n+](C)c1.CO[PH](=O)[O-] [1-ethyl-3-methylimidazolium methyl phosphonate]
viscosity (mPa·s): 11.54
--
Molecule: CC(=O)[O-].CCCCn1cc[n+](C)c1 [1-butyl-3-methylimidazolium acetate]
viscosity (mPa·s): 17.09
--
Molecule: CCCC[n+]1ccn(C)c1.O=S(=O)([N-]S(=O)(=O)C(F)(F)F)C(F)(F)F
viscosity (mPa·s): 7.788
--
Molecule: CCOP(=O)([O-])OCC.CCn1cc[n+](C)c1 [1-ethyl-3-methylimidazolium diethyl phosphate]
viscosity (mPa·s): 23.5

###

settings: 303.15 K; 101.33 kPa; Liquid; Vibrating tube method
Measured Metric: mass density (kg/m3)

Molecule: CCOP(=O)([O-])OCC.CCn1cc[n+](C)c1 [1-ethyl-3-methylimidazolium diethyl phosphate]
Measured Metric: mass density
Observed Result: 1141.2
//
Molecule: CCCC[n+]1ccn(C)c1.O=S(=O)([N-]S(=O)(=O)C(F)(F)F)C(F)(F)F
Measured Metric: mass density
Observed Result: 1431.6
//
Molecule: CCn1cc[n+](C)c1.CO[PH](=O)[O-] [1-ethyl-3-methylimidazolium methyl phosphonate]
Measured Metric: mass density
Observed Result: 1191.7
//
Molecule: CC(=O)[O-].CCCCn1cc[n+](C)c1 [1-butyl-3-methylimidazolium acetate]
Measured Metric: mass density
Observed Result: 1047.4

###

conditions: 313.15 K; 101.33 kPa; Liquid; Concentric cylinders viscometry
Numbers after ± are expanded uncertainties.
Measured viscosity, listed per entry for reference.
Measured Metric: viscosity

Molecule: CC(=O)[O-].CCCCn1cc[n+](C)c1 [1-butyl-3-methylimidazolium acetate]
Measured Metric: viscosity
Observed Result: 142.4 ± 6.9 mPa·s
--
Molecule: CCOP(=O)([O-])OCC.CCn1cc[n+](C)c1 [1-ethyl-3-methylimidazolium diethyl phosphate]
Measured Metric: viscosity
Observed Result: 173.9 ± 8.6 mPa·s
--
Molecule: CCn1cc[n+](C)c1.CO[PH](=O)[O-] [1-ethyl-3-methylimidazolium methyl phosphonate]
Measured Metric: viscosity
Observed Result: 56.11 ± 2.6 mPa·s
--
Molecule: CCCC[n+]1ccn(C)c1.O=S(=O)([N-]S(=O)(=O)C(F)(F)F)C(F)(F)F
Measured Metric: viscosity
Observed Result: 28.46 ± 1.3 mPa·s
